assay: activity coefficient (dimensionless); of the first substance listed, at infinite dilution; xn = mol fraction of the nth substance listed; conditions: 333.15 K; 101 kPa; Liquid; Chromatography; x1 = 0
Please use MET for activity coefficient under 0.5 and NOT MET for everything else, ties included.

Past entries and their recorded results:
# compound, classification
data = [
    ("CCCCCCCCC [nonane] + CC1(C)[C@@H]2CC[C@@]1(CS(=O)(=O)[O-])C(=O)C2.CCCCCCCCCCCCCC[N+](CCCCCC)(CCCCCC)CCCCCC", "NOT MET"),
    ("C1CCCCC1 [cyclohexane] + CC1(C)[C@@H]2CC[C@@]1(CS(=O)(=O)[O-])C(=O)C2.CCCCCCCCCCCCCC[N+](CCCCCC)(CCCCCC)CCCCCC", "NOT MET"),
    ("ClC(Cl)Cl [trichloromethane] + CC1(C)[C@@H]2CC[C@@]1(CS(=O)(=O)[O-])C(=O)C2.CCCCCCCCCCCCCC[N+](CCCCCC)(CCCCCC)CCCCCC", "MET"),
]

Below 0.5 on activity coefficient? Entry CCCCCCCCCC [decane] + CC1(C)[C@@H]2CC[C@@]1(CS(=O)(=O)[O-])C(=O)C2.CCCCCCCCCCCCCC[N+](CCCCCC)(CCCCCC)CCCCCC NOT MET

Below 0.5 on activity coefficient? Entry C1COCCO1 [1,4-dioxane] + CC1(C)[C@@H]2CC[C@@]1(CS(=O)(=O)[O-])C(=O)C2.CCCCCCCCCCCCCC[N+](CCCCCC)(CCCCCC)CCCCCC NOT MET
